Data origin, for the record: PubChem BioAssay (NCI)

test system: UO-31 renal; test: NCI-60 one-dose screen, 48 h (100 = growth as untreated, 0 = no growth, -100 = all killed); conditions: 10 µM unless noted
About 83,000 compounds went through this panel and 20% of them were active in at least one assay; those are over-represented in the sample as a whole.
Recorded growth, one value per entry.
Report the figure in % without appending any unit label.

O=c1c(/C=C/c2ccco2)nnc2sc(Nc3ccc(Cl)cc3)nn12 : 79
COc1ccc(-c2cc(-c3cccc(Cl)c3)c(C#N)c(=O)[nH]2)c(OC)c1 : 85.3
CCNC(=O)Nc1ncccc1OCc1ccc(F)cc1 : 93.7
C=C(C)[C@@H]1CC[C@]2(C(=O)N3CCN(C)CC3)CC[C@]3(C)[C@H](CC[C@@H]4[C@@]5(C)CC(CCCNC(C)=O)(CCCNC(C)=O)[C@H](OC(C)=O)C(C)(C)[C@@H]5CC[C@]43C)[C@@H]12 : 80.5

Returns the measured growth for the input molecule. Input: `O=C1/C(=C/c2cn(-c3ccccc3)nc2-c2ccccc2)SC(=S)N1c1ccccc1` 82.3

Returns the measured growth for the input molecule. Input: `CCCCC#Cc1c(/C=C(\CCCC)SCC)n(C)c(=O)[nH]c1=O` 90.9

Returns the measured growth for the input molecule. Input: O=C(CC1(O)C(=O)Nc2ccc(Br)cc21)c1ccc(Cl)cc1 (centres undefined) 75.9

Returns the measured growth for the input molecule. Input: `Cc1ccc(NC(=O)c2sc3nc(C)c(C(=O)c4ccccc4)cc3c2N)cc1` 89.4

Returns the measured growth for the input molecule. Input: `Cc1ccc(-c2nc3nc(-c4ccc(F)cc4)nc(N4CCCNCC4)c3o2)cc1` -88.5
